Parameter CC50 at 72 h: see the listing below.
# method: Cytotoxicity assay (CCK-8) on replicon cells
# Assay type: cell-based
# measurementSetup: human, HCV 1b replicon cells (Huh-7.5.1); 50% cytotoxic concentration; CCK-8, HCV 1b replicon cells, 72 h
measureName: CC50 at 72 h (µM)

>>> measuredvalue("O=c1[nH]c2cc(-c3ccc(F)c(Cl)c3)ccc2c(=O)n1O [21l]")
40.7
>>> measuredvalue("O=c1[nH]c2cc(-c3cccc([N+](=O)[O-])c3)ccc2c(=O)n1O [21k]")
40.9
>>> measuredvalue("COc1ccc(-c2ccc3c(=O)n(O)c(=O)n(C)c3c2)cc1 [23d]")
9.3
>>> measuredvalue("O=c1[nH]c2cc(-c3ccccc3)ccc2c(=O)n1O [21e]")
5.4
